Target: Nicotinamide N-methyltransferase (Homo sapiens, UniProt P40261)
Sequence (P40261 whole entry, the tested form may be a part): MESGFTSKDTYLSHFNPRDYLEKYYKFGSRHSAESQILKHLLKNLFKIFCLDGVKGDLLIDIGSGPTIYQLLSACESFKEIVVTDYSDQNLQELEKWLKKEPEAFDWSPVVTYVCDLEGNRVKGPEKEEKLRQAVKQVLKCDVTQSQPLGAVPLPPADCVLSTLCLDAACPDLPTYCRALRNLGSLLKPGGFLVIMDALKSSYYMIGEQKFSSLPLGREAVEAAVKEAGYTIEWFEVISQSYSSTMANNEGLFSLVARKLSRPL
Experiment: Inhibition of N-terminal 6His-tagged full length human recombinant NNMT (1 to 264 residues) expressed in Escherichia coli BL21 (DE3) cells using S-adenosyl-L-methionine and NAM as substrate incubated for 2 hrs by RapidFire Mass Spectrometry
Metric name: IC50 (µM)
// return numeric value only (unit: µM, not printed)

Q: Need IC50, item `Nc1ncnc2c1ncn2[C@@H]1O[C@H](C[C@@H](N)CC[C@H](N)C(=O)O)[C@@H](O)[C@H]1O`
Ans: 5.2

---

Biological target: Indolethylamine N-methyltransferase (Homo sapiens)
Sequence (O95050 whole entry, the tested form may be a part): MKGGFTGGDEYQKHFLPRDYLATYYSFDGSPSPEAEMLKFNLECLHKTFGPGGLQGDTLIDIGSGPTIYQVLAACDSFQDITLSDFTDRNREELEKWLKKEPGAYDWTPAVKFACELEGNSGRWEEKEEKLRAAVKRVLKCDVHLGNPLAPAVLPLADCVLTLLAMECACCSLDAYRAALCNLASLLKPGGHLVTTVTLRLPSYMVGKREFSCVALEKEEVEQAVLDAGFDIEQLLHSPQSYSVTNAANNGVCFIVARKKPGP
Assay: Inhibition of N-terminal 6His-tagged full length human recombinant INMT (1 to 263 residues) expressed in Escherichia coli BL21 (DE3) cells using S-(5'-Adenosyl)-L-methionine chloride dihydrochloride and 9H-pyrido[3,4-b]indole as substrate incubated for 2.5 hrs by MTase-Glo assay
Positions of bridges follow the written chain, without caps; N, C: chain ends. Non-standard residues stand in square brackets, D forms with d. Residues, ends and D or L forms follow the SMILES beside them. Phe(4-CONH2) = NC(=O)c1ccc(C[C@H](N)C(=O)O)cc1; NHexGly = CCCCCCNCC(=O)O
Metric name: IC50

A selection of reference data follows.
1) Cc1ccc2c(c1)cc([C@H]1C[C@H](n3ccnc3CN)CN1C(=O)c1cnc3[nH]ccc3c1)n2Cc1ccc(Cl)cc1 ... > 100 µM
2) NCc1nccn1[C@H]1C[C@H](c2nc3ccccc3n2Cc2ccccc2)N(C(=O)c2cnc3[nH]ccc3c2)C1 ... > 100 µM
3) Nc1ncnc2c1ncn2[C@@H]1O[C@H](C[C@@H](N)CC[C@H](N)C(=O)O)[C@@H](O)[C@H]1O ... 4 µM
4) Cc1ccc2c(c1)cc([C@H]1C[C@H](n3nc(C)cc3CN)CN1C(=O)c1cnc3[nH]c(C)cc3c1)n2Cc1ccc(Cl)cc1 ... > 100 µM

Then there is this compound:
Q: Look at this compound and give its reported IC50. CCCCCCN1CC(=O)N[C@@H](Cc2c[nH]c3ccccc23)C(=O)N2CCC[C@H]2C(=O)N[C@H](C(=O)NCC(N)=O)CSCC(=O)N[C@@H](Cc2ccccc2)C(=O)N[C@@H](Cc2ccc(C(N)=O)cc2)C(=O)N[C@@H](CCCNC(=N)N)C(=O)NCC1=O ({CH2CO}-F[Phe(4-CONH2)]RG[NHexGly]WPCG-NH2; thioether N-8)
Ans: > 100 µM

Data credit: ChEMBL document CHEMBL5137077
